Conditions: in isopropanol, 318.15 K
measurement.type: solubility (mole fraction)

>  <chemical.smiles>
CC(=O)Nc1ccc(CC(=O)O)cc1

>  <measurement.type>
solubility (mole fraction)

>  <data.value>
0.0149

$$$$

----------
Conditions: in acetonitrile, 298.15 K

>  <chemical.smiles>
CC(=O)Nc1ccc(CC(=O)O)cc1

>  <solubility (mole fraction)>
0.00215

$$$$

----------
Conditions: in n-propanol, 308.15 K
measurement.type: solubility (mole fraction)

>  <chemical.smiles>
CC(=O)Nc1ccc(CC(=O)O)cc1

>  <data.value>
0.0149

$$$$

----------
Details: in isopropanol, 293.15 K

>  <chemical.smiles>
CC(=O)Nc1ccc(CC(=O)O)cc1

>  <solubility (mole fraction)>
0.0054

$$$$
